# Tested on: MDCK cells
# testConditions: minimal changes in cell morphology by microscopy
recordedEndpoint: Cytotoxicity MCC (minimum cytotoxic concentration)

NC(=O)c1ncn([C@@H]2O[C@H](CO)[C@@H](O)[C@H]2O)n1 = ≥100 µM
COC(=O)[C@H]1NC(=O)[C@H]2NC(=O)[C@H](NC(=O)[C@@H]3NC(=O)[C@H]4NC(=O)[C@H](NC(=O)[C@H](N)c5ccc(O)c(c5)Oc5cc4cc(O)c5C)[C@H](O)c4ccc(cc4)Oc4cc3cc(c4O)Oc3ccc(cc3)[C@H]2O)c2ccc(O)c(c2)-c2c(O)cc(O)cc21 = 100 µM
NC12CC3CC(CC(C3)C1)C2 = >100 µM

// below: Cytotoxicity MCC (minimum cytotoxic concentration) requested for another molecule
// sample CCC(CC)O[C@@H]1C=C(C(=O)O)C[C@H](N)[C@H]1NC(C)=O [Oseltamivir carboxylate] , its Cytotoxicity MCC (minimum cytotoxic concentration) was >100 µM
